Molecular target: TTK (Homo sapiens, UniProt P33981)
Sequence (P33981 1-857): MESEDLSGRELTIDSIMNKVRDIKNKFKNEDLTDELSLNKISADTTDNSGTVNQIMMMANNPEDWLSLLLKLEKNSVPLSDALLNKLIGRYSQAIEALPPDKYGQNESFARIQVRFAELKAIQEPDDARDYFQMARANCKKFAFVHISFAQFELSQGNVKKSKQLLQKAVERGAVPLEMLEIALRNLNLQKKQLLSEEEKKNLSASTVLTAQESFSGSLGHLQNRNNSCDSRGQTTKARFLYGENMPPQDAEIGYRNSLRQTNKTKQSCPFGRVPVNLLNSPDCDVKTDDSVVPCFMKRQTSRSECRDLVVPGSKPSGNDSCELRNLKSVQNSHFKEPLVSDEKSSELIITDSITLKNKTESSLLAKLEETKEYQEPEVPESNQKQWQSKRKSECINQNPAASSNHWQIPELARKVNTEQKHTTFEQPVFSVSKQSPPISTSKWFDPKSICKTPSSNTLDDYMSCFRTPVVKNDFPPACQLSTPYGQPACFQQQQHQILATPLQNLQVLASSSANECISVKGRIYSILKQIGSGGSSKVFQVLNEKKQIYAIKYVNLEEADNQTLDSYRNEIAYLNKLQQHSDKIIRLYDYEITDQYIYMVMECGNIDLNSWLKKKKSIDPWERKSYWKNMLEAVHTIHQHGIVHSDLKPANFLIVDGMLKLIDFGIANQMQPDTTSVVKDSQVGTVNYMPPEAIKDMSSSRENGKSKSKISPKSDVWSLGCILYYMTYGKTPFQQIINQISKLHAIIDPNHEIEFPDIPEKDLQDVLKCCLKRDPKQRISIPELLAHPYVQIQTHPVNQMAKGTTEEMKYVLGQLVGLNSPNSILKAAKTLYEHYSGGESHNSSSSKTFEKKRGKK
Assay: TTK assay: screening of TTK kinase activity suppressing action using p38 MAPK peptide
Type: biochemical
Conditions: p38 MAPK peptide substrate; read-out: TTK IC50
pIC50: −log10 of the molar value.
READOUT: pIC50

These recorded examples may help you get a feel for the data.
Cc1cccc(Oc2cc(NCC3CCOCC3)c3ncc(-c4ccc(C(=O)NC5CC5)cc4)n3n2)c1 ... 8.52
O=C(NC1CC1)c1ccc(-c2cnc3c(NCC4CCOCC4)cc(N4CCOC(CO)C4)nn23)cc1 (stereo not shown) ... 7.75

[A] COC[C@@H]1CCCN1c1cc(NCC2CCOCC2)c2ncc(-c3ccc(C(=O)NC4CC4)cc3)n2n1
[B] O=C(NC1CC1)c1ccc(-c2cnc3c(NCC4CCOCC4)cc(NC45CC6CC(CC4C6)C5)nn23)cc1
Request: Please indicate which has the smaller reported pIC50: A , or B . Kindly state the label of the option you pick.
Response: A
(A: 8.35, B: 8.57)

* * *

// values below are reported pIC50
Test system: A549
Assay: A549 assay: screening of cancer cell growth inhibiting compound
Assay type: cell-based
Conditions: Homo sapiens, 72 h; A549 cells, three days, WST-8; read-out: A549 IC50
pIC50: −log10 of the molar value.

O=C(NC1CC1)c1ccc(-c2cnc3c(NCC4CCOCC4)cc(Oc4cccc(Cl)c4)nn23)cc1 ... 6.30 to 7.30
Nc1c(F)cccc1Oc1cc(NCC2CCOCC2)c2ncc(-c3ccc(C(=O)NC4CC4)cc3)n2n1 ... ≥ 7.30
O=C(NC1CC1)c1ccc(-c2cnc3c(NCC4CCOCC4)cc(N4CCC(C(F)(F)F)CC4)nn23)cc1 ... 6.30 to 7.30

Request: Please report the recorded pIC50 for CC(C)CNc1nc(-c2cccc(C(=O)N3CCN(C)CC3)c2)cn2c(-c3ccc(C(=O)NC4CC4)cc3)cnc12 .
Response: 5.00 to 6.00

Origin of measurements: patent US20120059162A1
